- EXPERIMENTAL_SYSTEM: Plasmodium falciparum protein kinase 6 (PK6, PF3D7_1337100)
- ASSAY_DETAILS: PfPK6 kinase inhibitors, biochemical, TCAMS library (AID 1159586)
- SETTINGS: recombinant PfPK6, Kinase-Glo ATP depletion luminescence
Potency and affinity values are given separately. The source made the active and inactive calls. The rule behind the calls is not given here.
READOUT: outcome

>>> experimental_result("CCCCN1CCN(CC(O)CNC(=O)Nc2ccc(Cl)cc2)CC1 (stereo not given)")
"inactive"
>>> experimental_result("CC(C)(C)c1ccc(OCCCON2C(N)=NC(N)=NC2(C)C)cc1")
"inactive"
>>> experimental_result("CCCCc1cc(=O)oc2cc(C)cc(OCc3ccccc3F)c12")
"inactive"
>>> experimental_result("COc1cc(C(=O)NC2CC(C)(C)N(C)C(C)(C)C2)ccc1-c1cc2cc(Cl)c(Cl)cc2[nH]1")
"inactive"
>>> experimental_result("Cc1cc(O)c(CN(C)Cc2ccc(N(C)C)cc2)cc1C(C)C")
"inactive"
>>> experimental_result("c1ccc(-c2ccc(-c3csc(Nc4ccncc4)n3)cc2)cc1")
"inactive"
>>> experimental_result("N#Cc1ccc(Cn2ccc3c4c(N)nc(N)nc4ccc32)cc1")
"inactive"
>>> experimental_result("CC(=O)Nc1ccc(CN2CCN(C(c3ccc(F)cc3)c3ccc(F)cc3)CC2)cc1")
"inactive"
>>> experimental_result("CCOc1cc(C(=O)N[C@@H](Cc2ccccc2)[C@H](O)CNCc2cc(OC)cc(OC)c2)cc(N2CCCC2=O)c1")
"inactive"
>>> experimental_result("C[C@H]1CN(Cc2cccc(-c3cc(CNC(=O)c4cccc(CN5CCN(CCOc6ccccc6)CC5)c4)ccc3F)c2)CCN1")
"inactive"

====

- EXPERIMENTAL_SYSTEM: Calcium-dependent protein kinase 4 (Plasmodium falciparum (isolate 3D7))
- ASSAY_DETAILS: PfCDPK4 kinase inhibitors, biochemical, TCAMS library (AID 1159588)
- SETTINGS: recombinant PfCDPK4, Kinase-Glo ATP depletion luminescence
Measured potencies and affinities stand elsewhere. Calls of active or inactive are those of the source. Cut-off not given; nearly all actives show IC50 up to about 0.91 µM.
READOUT: outcome

>>> experimental_result("C[C@H](NC(=O)[C@H](Cc1ccccc1)NC(=O)OC(C)(C)C)C(=O)N[C@@H](CC1CCCCC1)C(O)CN (stereo not given in full)")
"inactive"
>>> experimental_result("Cn1cc(C(=O)Nc2cccc(-c3cccc(-c4nc5ccc(F)cc5[nH]4)c3)c2)n(C)c1=O")
"inactive"
>>> experimental_result("Cc1cc(N(C)C)nc(Nc2ccc(NC(=O)COc3ccccc3)cc2)n1")
"inactive"
>>> experimental_result("C=C[C@H]1CN(CCCCCCC)CC[C@H]1CC(O)Cc1ccnc2cc(O)c(OC)cc12 (stereo not given in full)")
"inactive"
>>> experimental_result("CCc1ccc(CN2CCC(CNC(=O)c3cc(-c4ccccc4F)cs3)C2)cc1 (stereo not given)")
"inactive"
>>> experimental_result("Cc1nc(NCCc2cnc[nH]2)cc(NCc2ccccc2)n1")
"inactive"
>>> experimental_result("O=c1cc(NCCCNC2CCOc3c(I)cc(Cl)cc32)[nH]c2ccccc12 (stereo not given)")
"inactive"
>>> experimental_result("CC(C)N1CCCN(C(=O)C2CCN(c3ccc(C(=O)N4CCCC4)cn3)CC2)CC1")
"inactive"
>>> experimental_result("CC(C)(C)c1ccc(NC(=O)c2ccc(CN3CCCN(Cc4ccc(F)cc4)CC3)cc2)cc1")
"inactive"
>>> experimental_result("O=C(Nc1ccc(OC(F)(F)F)cc1)NC1CCN(c2ccnc3ccccc23)C1 (stereo not given)")
"inactive"

====

- ASSAY_DETAILS: antimalarial activity against Dd2 strain (AID 2302)
- SETTINGS: P. falciparum Dd2 in RBCs, LDH growth readout, 72 h; at 2 µM
Activity calls are given as the source filed them.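 The calls were made as follows: active = growth inhibition above 50% at the single 2 µM test dose, taken to imply half-maximal potency below 2 µM; inactive = the rest.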
Labels: active, inactive

>>> label("c1ccc(-c2cccnn2)cc1")
"inactive"
>>> label("c1cc(CNCCN2CCNCC2)cc(-c2ccc(-c3nc4ccccc4[nH]3)cc2)c1")
"inactive"
>>> label("Nc1c2c(nc3cc(NC(=O)c4ccc([N+](=O)[O-])cc4)ccc13)CCCC2")
"active"
>>> label("CN(C)CCN(C)Cc1ccc(-c2ccc(NS(=O)(=O)c3cccc4cccnc34)cc2)cc1")
"inactive"
>>> label("O=[N+]([O-])c1cnc(Nc2ccccc2O)nc1Nc1ccccc1O")
"active"
>>> label("CCn1c(C)cc(C=C2SC(=Nc3ccccc3)NC2=O)c1C")
"active"

====

- ASSAY_DETAILS: antimalarial activity against Dd2 strain (AID 2302)
- SETTINGS: P. falciparum Dd2 in RBCs, LDH growth readout, 72 h; at 2 µM
Calls of active or inactive are those of the source.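 The calls were made as follows: active = growth inhibition above 50% at the single 2 µM test dose, taken to imply half-maximal potency below 2 µM; inactive = the rest.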
Labels: active, inactive

>>> label("COc1ccc(-c2csc3ncnc(Cl)c23)cc1OC")
"active"
>>> label("Cc1ccc(CCC(C)NCC(O)c2cccc(C(F)(F)F)c2)cc1 (stereo not given)")
"active"
>>> label("CCCNC(=O)C1Cc2c([nH]c3cc(Br)ccc23)C2(CCN(CCc3ccccc3)CC2)N1 (stereo not given)")
"inactive"
>>> label("Cc1cc(NCCCCCCN)nc(Nc2ccc(Cl)cc2)n1")
"inactive"
>>> label("CC(C)C[C@H](NC(=O)c1cc2ccccc2s1)C(=O)N[C@H]1CCN(Cc2ccc(OC3CCN(C)C3)c(Cl)c2)C1 (stereo not given in full)")
"active"
>>> label("COc1ccc2nccc(N3CCC(NCCNCc4cc5c(cn4)OCCO5)C3)c2n1 (stereo not given)")
"inactive"
>>> label("CN(C)c1ccc(CN2CCC(CNC(=O)c3cc(-c4ccccc4F)cs3)C2)cc1 (stereo not given)")
"inactive"
>>> label("CC(C)(C)c1ccc(CN2CCCCC(NC(=O)c3cc(-c4cccc(Cl)c4)cs3)C2)cc1 (stereo not given)")
"active"
>>> label("Cc1nc(N)nc(N)c1CCCOc1cccc(Cl)c1")
"inactive"
>>> label("N#Cc1ccc2c(c1)CCN(CCCn1c(-c3ccc4ccccc4c3)nc3ccncc31)CC2")
"active"

====

- ASSAY_DETAILS: human hepatoma cell viability loss – ATP luminescence, cytotoxicity control for P. falciparum antimalarial project, primary screen (AID 2303)
- SETTINGS: HepG2 viability, 24-48 h, at 10 µM
Calls of active or inactive are those of the source.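 Rule for the calls: active = inhibition above 50%; inactive = the rest.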
Labels: active, inactive

>>> label("O=C(NCc1cccc2ccccc12)C1CCCN(C(=O)c2ccc(O)c(-c3ccc(Cl)c(Cl)c3)c2)C1 (stereo not drawn)")
"inactive"
>>> label("CN1CCN(CC2(Nc3nccc(NCc4ccc(Cl)cc4Cl)n3)CCCCC2)CC1")
"active"
>>> label("Fc1ccc([C@H]2N=C(SCCSC3=N[C@H](c4ccc(F)cc4)[C@H](c4ccc(F)cc4)N3)N[C@H]2c2ccc(F)cc2)cc1")
"inactive"
>>> label("COc1ccc2nc(-c3ccccc3)cc(NN=Cc3ccncc3)c2c1")
"inactive"
>>> label("c1cncc(Oc2ccc(Nc3ccnc4cc(-c5cccc(CN6CCOCC6)c5)ccc34)cc2)c1")
"inactive"
>>> label("O=C(/C=C/c1ccc(Cl)c(Cl)c1)N1CCC(CCN2CCC(c3c[nH]c4ccncc34)CC2)CC1")
"inactive"
>>> label("O=c1cc(NCCCNCc2csc(Br)c2Sc2ccc(Cl)cc2)[nH]c2ccccc12")
"inactive"
>>> label("NC1CCCN(Cc2cccc(-c3ccc(-c4nc5ccccc5[nH]4)cc3)c2)C1 (stereo not drawn)")
"inactive"
>>> label("O=C(Nc1ccc(Cl)cc1)NC1CCN(CCCCCNC(=O)[C@@H]2C[C@H]2c2ccc(Cl)c(Cl)c2)CC1")
"active"
>>> label("CN1CCN(c2ccnc3ccc(NC(=O)Nc4cccc5c(-c6ccncc6)cccc45)cc23)CC1")
"inactive"
>>> label("COc1ccc(-c2csc3ncnc(Cl)c23)cc1OC")
"inactive"
>>> label("CCCNC(=O)CN1CN(c2ccccc2)C2(CCN(C(=O)c3ccc(C(C)(C)C)cc3)CC2)C1=O")
"inactive"
>>> label("O=C(Nc1ccc(C(=O)Oc2ccc3ccccc3c2)cc1)N[C@@H](Cc1ccc(O)cc1)C(=O)NC1CCN(Cc2ccc(O)cc2)C1 (stereo partly drawn)")
"inactive"
>>> label("COc1ccc(CNC2CCN(C)CC2)cc1-c1ccc(S(=O)(=O)NCc2ccccc2)c(C)c1")
"active"
>>> label("NCC1CCCN1Cc1ccc(-c2ccc(-c3nc4ccc(F)cc4[nH]3)cc2)cc1 (stereo not drawn)")
"inactive"
>>> label("COc1ccccc1-n1c(SCC(=O)Nc2ccccc2F)nc2cccnc21")
"inactive"
>>> label("Cc1nc2ccc3ccc(CN(C)c4ccc(C(=O)N[C@@H](CCC(=O)O)C(=O)O)cc4)cc3c2c(=O)[nH]1")
"inactive"
>>> label("O=c1cc(NCCC(CNCc2cc3ccccc3o2)NCc2cc(Br)cc(Br)c2)[nH]c2ccccc12 (stereo not drawn)")
"inactive"
>>> label("CCN(CC)CCNC(=O)c1ccc(NC(=O)c2oc3c(Cl)cccc3c2C)cc1")
"inactive"
>>> label("CCNc1cc(C)nc(Nc2ccc(NC(=O)Cc3ccc(OC)cc3)cc2)n1")
"inactive"
>>> label("Cc1cc(CNC(=O)c2ccc(-c3ccc(-c4nc5ccc(C(F)(F)F)cc5[nH]4)s3)cc2)on1")
"inactive"
>>> label("O=C(Nc1ccc(OC(F)(F)F)cc1)NC1CCN(c2ccnc3ccccc23)CC1")
"inactive"
>>> label("CS(=O)(=O)c1ccc(-c2cnc(N)c(-c3cccc(CO)c3)c2)cc1")
"inactive"
>>> label("Oc1cccc(Nc2nc(NCc3ccco3)c3ccccc3n2)c1")
"inactive"
>>> label("COc1cc(Nc2ncc3c(C)nc(-c4cc5ccccc5[nH]4)n3n2)cc(OC)c1OC")
"inactive"
>>> label("CCc1cccc(-n2c(=O)c3cccnc3n2CC(=O)NCc2ccccc2Cl)c1")
"inactive"
>>> label("CCOc1cc(C(=O)NC2CC(C)(C)NC(C)(C)C2)ccc1-c1nc2ccc(Cl)cc2[nH]1")
"inactive"
>>> label("COc1ccc2nccc(N3CCN(CCNCc4ccc5c(n4)NC(=O)CS5)CC3)c2n1")
"inactive"
>>> label("Cc1ccc(CN2CCC(Oc3cccc(NC(=O)c4ccc(C(F)(F)F)cc4)c3)CC2)cc1")
"inactive"
>>> label("CN1CCC(Oc2ccc(CN3CC[C@H](NC(=O)c4ccc(Cl)c(F)c4)C3)c3ccccc23)C1 (stereo partly drawn)")
"active"
>>> label("O=C(C=Cc1ccc(Cl)c(Cl)c1)NCCCCCN1CCC(CCCNC(=O)c2sc3ccccc3c2Cl)CC1")
"active"
>>> label("CCCOc1ccc(NC(=O)c2cccs2)cc1Cl")
"inactive"
>>> label("C[C@H](Cc1ccc(OCCCCCCOc2ccc(C[C@@H](C)N[C@H](C)c3ccccc3)cc2)cc1)NC[C@H](O)c1cccc(Cl)c1")
"active"
>>> label("c1cc2c3c(cccc3c1)NC(CCCCCCCCC1=Nc3cccc4cccc(c34)N1)=N2")
"inactive"
>>> label("COc1ccc(CNCCc2cccs2)cc1-c1ccc(S(=O)(=O)NCCN2CCCC2)cc1")
"inactive"
>>> label("COCCn1c(-c2nc(-c3ccc(F)cc3)cnc2N)nc2ccccc21")
"inactive"
>>> label("COc1cccc(Nc2nc(C)cc(NC3CCN(Cc4ccccc4)CC3)n2)c1")
"inactive"
>>> label("CNC(=O)Cc1ccc(C(=O)Nc2cccc(-c3cccc(-c4nc5c(C)cccc5[nH]4)c3)c2)cc1")
"inactive"
